Recorded values, source PubChem BioAssay (NCI).

- System: EKVX NSCLC
- test: NCI tumour cell line growth inhibition, 48 h
Listed here are compounds together with their documented GI50.
metric: GI50

INSERT INTO measurements (compound_structure, result) VALUES
  ('Cc1c2ccccc2c(C)n2c1nc1cc(Cl)c(Cl)cc12', '93.7 µM'),
  ('Cn1cccc1-c1cc(-c2ccccc2)nc(N)c1C#N', '98.1 µM'),
  ('COC(=O)c1cc(C)[nH]c2c(C)cc3nc4ccccc4c3c12', '6.5 µM'),
  ('CS(=O)(=O)CCNCc1ccoc1-c1ccc2ncnc(Nc3ccc(OCc4ccccc4)cc3)c2c1', '1.03 µM');

---

- System: IGROV1 ovarian
- test: NCI tumour cell line growth inhibition, 48 h
metric: TGI

INSERT INTO measurements (compound, result) VALUES
  ('O=C(O)C1CSC2(CCCN(Cc3ccccc3)C2)N1 (stereo unspecified)', '> 100 µM'),
  ('Cc1cc(O)c(C(C)C)cc1C(=S)Nc1ccc(Cl)cc1', '15.9 µM'),
  ('O=C1C=CC(=O)c2c(O)c(N(CCCl)CCCl)c(Cl)c(O)c21', '> 7.99 µM'),
  ('CC(=O)c1c(O)cc(O)c(-c2c(C)cc(O)c3c2C(=O)c2cccc(O)c2C3=O)c1O', '29.8 µM'),
  ('CCOc1ccccc1NC(=O)C1=C(C)NC(C)=C(C(=O)Nc2ccccc2OCC)C1c1cccc([N+](=O)[O-])c1', '> 100 µM'),
  ('CSc1c(C)n([O-])c2cc(Cl)c(Cl)cc2[n+]1=O', '30.8 µM'),
  ('Cn1c(-c2c(C3=CC(=O)N(c4ccccc4)C3=O)c3ccccc3n2C)cc2ccccc21', '> 100 µM'),
  ('COC(=N)CCCl', '> 100 µM'),
  ('COc1ccc(S(=O)(=O)Nc2cc(Sc3cccc4cccnc34)c(O)c3ccccc23)cc1', '7.2 µM'),
  ('O=NNc1c[nH]c(=O)[nH]c1=O', '> 100 µM'),
  ('COC(=O)C(/C(=N\O)C(=O)Nc1ccc(Br)cc1)c1nc2ccccc2[nH]c1=O (stereo unspecified)', '71.4 µM'),
  ('Cc1c(C2CCSc3ccccc3N2)sc2ccccc12 (stereo unspecified)', '> 100 µM'),
  ('C=C(CN1CCN(c2ccc(F)c(Cl)c2)CC1)c1ccc(C(=O)Nc2ccccc2N)cc1', '7.86 µM'),
  ('CCOC(=O)C1=C(C)N(Cc2ccccc2)C2(O)C(OC)CC(=O)C3C(=O)N(c4ccccc4)C(=O)C132 (stereo unspecified)', '37.6 µM'),
  ('CCOC(=O)C(=O)Nc1nc2ccc(C)cc2s1', '> 100 µM'),
  ('CC(CC(=O)Nc1ccc(NC(=O)CC(C)N=NC(N)=O)cc1)N=NC(N)=O (stereo unspecified)', '> 100 µM'),
  ('CC(C)=CCC[C@@H](C)C1=C(O)C(Nc2ccccc2)=C(C)C(=O)C1=O', '> 100 µM'),
  ('Cc1ccc2c(c1)Nc1ccccc1P2(=O)O', '> 100 µM'),
  ('CC(C)c1cc(C(C)C)c(B(c2ccccc2)c2ccccc2)c(C(C)C)c1B(c1ccccc1)c1ccccc1', '> 100 µM'),
  ('C1CC[N-]CC1.CC(=N\O)/C(C)=N/O.CC(=N\O)/C(C)=N/O.C[CH-]C(C)O.[Co+2]', '> 100 µM'),
  ('Cc1nc(-n2nc(-c3ccccc3)cc2-c2ccccc2)sc1C(=O)/C=C/c1cccc([N+](=O)[O-])c1', '92.2 µM');
